Data provenance is paper PMC6332334.

Target: Trypanosoma cruzi triosephosphate isomerase (TcTIM) (Trypanosoma cruzi, UniProt P52270)
Construct: made in house; host or cells: Escherichia coli
Sequence (P52270 whole entry): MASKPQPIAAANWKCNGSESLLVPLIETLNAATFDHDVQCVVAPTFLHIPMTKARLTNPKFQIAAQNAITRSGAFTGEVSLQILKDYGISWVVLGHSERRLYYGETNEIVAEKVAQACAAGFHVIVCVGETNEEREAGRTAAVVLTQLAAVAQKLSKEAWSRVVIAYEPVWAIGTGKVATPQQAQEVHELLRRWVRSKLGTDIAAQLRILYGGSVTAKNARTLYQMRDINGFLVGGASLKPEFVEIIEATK
Experiment: Inhibition of enzymatic activity of TcTIM
Type: biochemical
Conditions: percentage of enzymatic inhibition at 25 μM; read-out: TcTIM % Inhib25
// Not met strictly below 60% in inhibition at 25 µM; Met otherwise

Check out these entries, answers already filled in.
INSERT INTO results (compound, assignedclass) VALUES
  ('O=C(CS/C(C(=O)c1ccc2ccccc2c1)=C1\C=C(c2ccc(O)cc2)SS1)c1ccc2ccccc2c1 [Derivative 14]', 'Not met'),
  ('COc1ccc(-c2cc(=S)ss2)cc1 [Derivative 5]', 'Met'),
  ('COc1ccc(C2=C/C(=C(\SCC(C)=O)C(C)=O)SS2)cc1 [Derivative 15]', 'Met');

Consider now this further compound.
Task item: Given Oc1ccc(-c2cc(=S)ss2)cc1 [Derivative 6] , state whether its inhibition at 25 µM is at least 60%.
Reply: Not met

* * *

Biological target: Trypanosoma cruzi triosephosphate isomerase (TcTIM) (Trypanosoma cruzi, UniProt P52270)
Assay: Inhibition of enzymatic activity of TcTIM
Conditions: isolated enzyme, 2 h incubation at 36 °C
Experimental: In order to investigate if the 3H-[1,2]dithioles inhibit TcTIM, we initially tested the inhibitory capacity of the compounds at a concentration of 200 μM and then at 25 μM. Expression and purification of protein: TcTIM was expressed in Escherichia coli and purified as described in the literature. […] Protein concentration was determined by absorbance at 280 nm (ε = 36,440 M^−1·cm^−1). […]
API: label(entry) gives 1 if the entry's IC50 is strictly smaller than 3 µM; on equality or larger values it gives -1.

INSERT INTO measurements (compound, targetorsystem, assignedclass) VALUES
  ('O=C(C[S+]=c1cc(-c2ccc(O)cc2)ss1)c1ccc2ccccc2c1 [Derivative 18]', 'Trypanosoma cruzi triosephosphate isomerase (TcTIM) (Trypanosoma cruzi, UniProt P52270)', -1),
  ('COc1ccc(-c2cc(=[S+]CC(C)=O)ss2)cc1 [Derivative 19]', 'Trypanosoma cruzi triosephosphate isomerase (TcTIM) (Trypanosoma cruzi, UniProt P52270)', -1),
  ('COc1ccc(C2=C/C(=C(\SCC(=O)c3ccccc3)C(=O)c3ccccc3)SS2)cc1 [Derivative 16]', 'Trypanosoma cruzi triosephosphate isomerase (TcTIM) (Trypanosoma cruzi, UniProt P52270)', -1),
  ('O=C(CS/C(C(=O)c1ccccc1)=C1\C=C(c2ccc(O)cc2)SS1)c1ccccc1 [Derivative 13]', 'Trypanosoma cruzi triosephosphate isomerase (TcTIM) (Trypanosoma cruzi, UniProt P52270)', -1);

Consider now this further compound.
Task item: Does COc1ccc(-c2cc(=S)ss2)cc1 [Derivative 5] have IC50 strictly under 3 µM?
Reply: 1

* * *

Test system: epimastigotes of T. cruzi (Tulahuen 2 strain)
Experiment: Anti-T. cruzi test in vitro (epimastigote growth inhibition)
Assay type: cell-based, Trypanosoma cruzi
Details: Trypanosoma cruzi; epimastigotes, Tulahuen 2 strain; triplicate; read-out: IC50 against T. cruzi
pIC50: −log10 of the molar value.
attributeMeasured: pIC50

INSERT INTO results (molecule, assayvalue) VALUES
  ('O=C(Oc1ccc(-c2cc(=S)ss2)cc1)c1ccc(/C=C/C(=O)c2ccccc2O)cc1 [Derivative 9]', 4.60);

Each of the following entries comes with a recorded value; kindly state pIC50 for each.
1. O=C(CS/C(C(=O)c1ccc2ccccc2c1)=C1\C=C(c2ccc(O)cc2)SS1)c1ccc2ccccc2c1 [Derivative 14]
2. COc1ccc(-c2cc(=[S+]CC(=O)c3ccc4ccccc4c3)ss2)cc1 [Derivative 21]
3. COc1ccc(-c2cc(=[S+]CC(C)=O)ss2)cc1 [Derivative 19]
4. CC(=O)COc1ccc(C2=C/C(=C(\SCC(C)=O)C(C)=O)SS2)cc1 [Derivative 2]
5. O=C(COc1ccc(-c2cc(=S)ss2)cc1)c1ccc2ccccc2c1 [Derivative 12]
6. O=C(/C=C/c1ccc(C(=O)Oc2ccc(-c3cc(=S)ss3)cc2)cc1)c1ccccc1 [Derivative 8]

Reply:
5.31
< 4.60
< 4.60
5.11
< 4.60
< 4.60

Each of the following entries comes with a recorded value; kindly state pIC50 for each.
1. Oc1ccc(-c2cc(=S)ss2)cc1 [Derivative 6]
2. COc1ccc(-c2cc(=S)ss2)cc1 [Derivative 5]
3. COc1ccc(C2=C/C(=C(\SCC(=O)c3ccc4ccccc4c3)C(=O)c3ccc4ccccc4c3)SS2)cc1 [Derivative 17]
4. O=C(COc1ccc(-c2cc(=S)ss2)cc1)c1ccccc1 [Derivative 11]

Reply:
1: 4.60; 2: < 4.60; 3: < 4.60; 4: < 4.60

Each of the following entries comes with a recorded value; kindly state pIC50 for each.
1. O=C(C[S+]=c1cc(-c2ccc(O)cc2)ss1)c1ccc2ccccc2c1 [Derivative 18]
2. COc1ccc(C2=C/C(=C(\SCC(=O)c3ccccc3)C(=O)c3ccccc3)SS2)cc1 [Derivative 16]

Reply:
1. < 4.60
2. < 4.60

Each of the following entries comes with a recorded value; kindly state pIC50 for each.
1. COc1ccc(-c2cc(=[S+]CC(=O)c3ccccc3)ss2)cc1 [Derivative 20]
2. CC(=O)COc1ccc(-c2cc(=S)ss2)cc1 [Derivative 10]
3. O=C(CS/C(C(=O)c1ccccc1)=C1\C=C(c2ccc(O)cc2)SS1)c1ccccc1 [Derivative 13]
4. COc1ccc(C2=C/C(=C(\SCC(C)=O)C(C)=O)SS2)cc1 [Derivative 15]

Reply:
< 4.60
< 4.60
5.26
5.23

# pIC50 of O=C(/C=C/c1ccccc1)Oc1ccc(-c2cc(=S)ss2)cc1 [Derivative 7] = < 4.60

* * *

Biological target: cruzipain (Trypanosoma cruzi)
Construct: endogenous in cells; host or cells: T. cruzi epimastigotes, Tulahuen 2 strain
Sequence (P25779 123-467): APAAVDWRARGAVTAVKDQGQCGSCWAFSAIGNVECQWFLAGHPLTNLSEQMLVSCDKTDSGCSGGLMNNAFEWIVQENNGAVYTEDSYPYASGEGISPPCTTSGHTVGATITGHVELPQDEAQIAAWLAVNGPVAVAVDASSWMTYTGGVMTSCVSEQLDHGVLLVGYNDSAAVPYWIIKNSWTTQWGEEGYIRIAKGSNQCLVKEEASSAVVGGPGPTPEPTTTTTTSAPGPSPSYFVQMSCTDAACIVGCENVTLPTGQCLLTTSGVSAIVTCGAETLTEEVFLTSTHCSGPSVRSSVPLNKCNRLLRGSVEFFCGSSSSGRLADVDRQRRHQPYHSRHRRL
Assay: Inhibition of T. cruzi cruzipain (Z-Phe-Arg-AMC fluorogenic substrate)
Format: biochemical
Conditions: percentage of enzymatic inhibition at 100 μM; read-out: Cruzipain % Inhib100
attributeMeasured: inhibition at 100 µM (%)
Answers are plain numbers, in %.

INSERT INTO measurements (molecule, assayvalue) VALUES
  ('O=C(CS/C(C(=O)c1ccccc1)=C1\C=C(c2ccc(O)cc2)SS1)c1ccccc1', 61);

Each of the following entries comes with a recorded value; kindly state inhibition at 100 µM for each.
1. COc1ccc(C2=C/C(=C(\SCC(=O)c3ccccc3)C(=O)c3ccccc3)SS2)cc1
2. COc1ccc(-c2cc(=S)ss2)cc1
3. O=C(/C=C/c1ccccc1)Oc1ccc(-c2cc(=S)ss2)cc1
4. COc1ccc(-c2cc(=[S+]CC(=O)c3ccccc3)ss2)cc1

Reply:
62.3
89
78.4
72

* * *

Could you please report measured inhibition at 200 µM for the items listed next?
Biological target: Trypanosoma cruzi triosephosphate isomerase (TcTIM) (Trypanosoma cruzi, UniProt P52270)
Construct: made in house; host or cells: Escherichia coli
Experiment: Inhibition of enzymatic activity of TcTIM
Assay type: biochemical
Settings: percentage of enzymatic inhibition at 200 μM; read-out: TcTIM % Inhib200
Protocol: In order to investigate if the 3H-[1,2]dithioles inhibit TcTIM, we initially tested the inhibitory capacity of the compounds at a concentration of 200 μM and then at 25 μM. Expression and purification of protein: TcTIM was expressed in Escherichia coli and purified as described in the literature. […] Protein concentration was determined by absorbance at 280 nm (ε = 36,440 M^−1·cm^−1). […]
Numbers only, in %.

INSERT INTO assay_data (molecule, targetorsystem, assayvalue) VALUES
  ('O=C(/C=C/c1ccccc1)Oc1ccc(-c2cc(=S)ss2)cc1', 'Trypanosoma cruzi triosephosphate isomerase (TcTIM) (Trypanosoma cruzi, UniProt P52270)', 14),
  ('CC(=O)COc1ccc(-c2cc(=S)ss2)cc1', 'Trypanosoma cruzi triosephosphate isomerase (TcTIM) (Trypanosoma cruzi, UniProt P52270)', 70),
  ('O=C(COc1ccc(-c2cc(=S)ss2)cc1)c1ccc2ccccc2c1', 'Trypanosoma cruzi triosephosphate isomerase (TcTIM) (Trypanosoma cruzi, UniProt P52270)', 70),
  ('COc1ccc(C2=C/C(=C(\SCC(=O)c3ccccc3)C(=O)c3ccccc3)SS2)cc1', 'Trypanosoma cruzi triosephosphate isomerase (TcTIM) (Trypanosoma cruzi, UniProt P52270)', 77),
  ('COc1ccc(C2=C/C(=C(\SCC(=O)c3ccc4ccccc4c3)C(=O)c3ccc4ccccc4c3)SS2)cc1', 'Trypanosoma cruzi triosephosphate isomerase (TcTIM) (Trypanosoma cruzi, UniProt P52270)', 81);

Each of the following entries comes with a recorded value; kindly state inhibition at 200 µM for each.
1. COc1ccc(-c2cc(=[S+]CC(=O)c3ccc4ccccc4c3)ss2)cc1
2. COc1ccc(-c2cc(=[S+]CC(C)=O)ss2)cc1
3. CC(=O)COc1ccc(C2=C/C(=C(\SCC(C)=O)C(C)=O)SS2)cc1

Reply:
1: 65; 2: 95; 3: 72

Each of the following entries comes with a recorded value; kindly state inhibition at 200 µM for each.
1. O=C(CS/C(C(=O)c1ccccc1)=C1\C=C(c2ccc(O)cc2)SS1)c1ccccc1
2. O=C(Oc1ccc(-c2cc(=S)ss2)cc1)c1ccc(/C=C/C(=O)c2ccccc2O)cc1

Reply:
1: 86; 2: 50
